molecular target: T1, Human ROR1-ECD-his (Acro Biosystems RO1-H522y) (human, UniProt Q01973 30-406); assay: BLI in-tandem, row = 1st Ab; competitor (2nd Ab): PR000374
T1 construct: extracellular domain; bought protein; also called hROR1-ECD-his; hu-ROR1-ECD-his
T1 sequence (Q01973 30-406): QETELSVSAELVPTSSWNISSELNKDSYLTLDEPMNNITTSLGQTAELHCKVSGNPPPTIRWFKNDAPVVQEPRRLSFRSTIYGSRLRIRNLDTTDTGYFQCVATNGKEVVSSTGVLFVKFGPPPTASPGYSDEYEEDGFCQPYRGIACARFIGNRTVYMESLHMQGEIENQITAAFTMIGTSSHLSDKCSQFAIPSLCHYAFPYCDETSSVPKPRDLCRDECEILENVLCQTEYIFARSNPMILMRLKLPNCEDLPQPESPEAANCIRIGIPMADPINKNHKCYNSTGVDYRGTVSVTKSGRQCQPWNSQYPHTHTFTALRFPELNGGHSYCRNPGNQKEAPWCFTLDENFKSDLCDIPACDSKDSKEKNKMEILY
endpointName: Inhibition (%)
Just the number in %, nothing appended.

[Q] # query: Inhibition (%) of entry PR007417 (antibody, V domains shown, bivalent form (HCAb) variant of PR005340, no light chain) VH: EVQLVESGGGLVKPGGSLRLSCAASGFTFSDFYMSWIRQAPGKGLEWISYISSSGSTRYYADSVKGRFTISRDNAKNSLYLQMNSLRAEDTAIYYCARDIPSSSSDWVDLQFDYWGQGTLVTVSS
[A] 10.2

[Q] // repeat for PR005340 (antibody, human IgG1, V domains shown, HCAb (heavy chain-only, human IgG1 Fc), no light chain) VH: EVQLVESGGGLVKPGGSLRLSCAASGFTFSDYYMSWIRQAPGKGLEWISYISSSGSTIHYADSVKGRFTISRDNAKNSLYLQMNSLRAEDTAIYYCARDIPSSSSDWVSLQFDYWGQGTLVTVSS and report
[A] -0.17

[Q] What about PR005338 (antibody, human IgG1, V domains shown, HCAb (heavy chain-only, human IgG1 Fc), no light chain) VH: EVQLVESGGGLVKPGGSLRLSCAASGFTFSDYYMSWIRQAPGKGLEWISYISSSGTTIHYADSVKGRFTISRDNAKNSLYLQMNSLRTEDTAVYYCARDAPSSNSDWVSLQFDYWGQGTLVTVSS ?
[A] -3.02

[Q] Now try PR000374 (antibody, human IgG1, kappa, V domains shown, positive control; also called Bench marker 1) VH: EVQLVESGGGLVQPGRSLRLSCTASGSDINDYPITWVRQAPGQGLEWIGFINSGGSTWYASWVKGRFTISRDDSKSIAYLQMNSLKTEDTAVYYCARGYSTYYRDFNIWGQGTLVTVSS VL: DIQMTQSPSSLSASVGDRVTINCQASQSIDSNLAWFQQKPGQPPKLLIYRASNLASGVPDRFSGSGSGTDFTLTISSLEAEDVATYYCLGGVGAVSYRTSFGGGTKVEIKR .
[A] 111

[Q] // same read-out, input: PR007424 (antibody, V domains shown, bivalent form (HCAb) variant of PR005340, no light chain) VH: EVQLVESGGGLVKPGGSLRLSCAASGFTFSDYYMSWIRQAPGKGLEWISYIDSSGRPLAYADSVKGRFTISRDNAKNSLYLQMNSLRAEDTAIYYCARDMPSSSSDWVSLQFDYWGQGTLVTVSS
[A] -0.73
